In this section we review reported inhibition values for a set of compounds.
- ASSAYED SYSTEM: Glucose transporter (Leishmania mexicana)
- TEST: ST_JUDE_LEISH: Cytotoxicity at 2uM final concentration against transgenic Leishmania Mexicana promastigotes LmGT2 that are glucose transport deficient and complemented with the L. Mexicana glucose transporter 2. Activity is measured by DNA content using SYBR green in vitro
- Format: functional

| COMPOUND | ASSAYED SYSTEM | inhibition |
| --- | --- | --- |
| Cc1cc(N[C@@H](CC(C)C)C(=O)NCc2cccc(F)c2)nc(NCC2CCCCC2)n1 | Glucose transporter (Leishmania mexicana) | 2.2% |
| O=C(N[C@@H](CC1CCCCC1)C(=O)NC1CCCc2ccccc21)c1ccc(O)c(-c2ccc(Cl)c(Cl)c2)c1 (some centres not stated) | Glucose transporter (Leishmania mexicana) | 0.12% |
| Cc1cc(N2CCN(CC3CCN(C)CC3)CC2)nc(Nc2ccc(Cl)cc2)n1 | Glucose transporter (Leishmania mexicana) | 2.21% |
| O=C(Nc1ccc(CC(=O)N2CCc3cc(Cl)c(N4CCN(C/C=C/c5ccccc5)CC4)cc32)cc1)Nc1cccc([N+](=O)[O-])c1 | Glucose transporter (Leishmania mexicana) | 1.93% |
| FC(F)(F)c1ccccc1OCc1cc(-c2ccncc2)c(COc2ccccc2C(F)(F)F)cc1C1=CCNCC1 | Glucose transporter (Leishmania mexicana) | 2.81% |
| CN1CCCc2ccc(NC(=O)Nc3ccc(-c4ccccc4)cc3)cc2C1 | Glucose transporter (Leishmania mexicana) | -0.14% |
| O=C(Nc1cc(Oc2ccc(O)cc2)cc([N+](=O)[O-])c1)c1cc(-c2ccc(F)cc2)no1 | Glucose transporter (Leishmania mexicana) | 1.6% |
| O=C(/C=C/c1ccc(Cl)c(Cl)c1)NCCCCCN1CCN(C(=O)Nc2ccc(Cl)c(C(F)(F)F)c2)CC1 | Glucose transporter (Leishmania mexicana) | -1.28% |
| COc1ccccc1/C=C/C(=O)NCCC1CCN(CCCCCNC(=O)/C=C/c2ccc(Cl)c(Cl)c2)CC1 | Glucose transporter (Leishmania mexicana) | 12.2% |
| O=C(Cc1ccc(-n2cnnn2)cc1)N(Cc1cncn1Cc1cccc(C(F)(F)F)c1)CC1CC1 | Glucose transporter (Leishmania mexicana) | 1.66% |
| NC(=O)C1CCN(Cc2ccc(-c3ccc(-c4nc5cc(C(F)(F)F)ccc5[nH]4)cc3)cc2)CC1 | Glucose transporter (Leishmania mexicana) | 3.93% |
| CCN(CC)CCOc1ccc(C(O)(C#CC(O)(c2ccc(C)cc2)c2ccc(OCCN(CC)CC)cc2)c2ccc(C)cc2)cc1 (configuration not stated) | Glucose transporter (Leishmania mexicana) | 1.02% |

* * *

- ASSAYED SYSTEM: Solute carrier family 2, facilitated glucose transporter member 1 (Homo sapiens)
- TEST: ST_JUDE_LEISH: Cytotoxicity at 2uM final concentration against transgenic Leishmania Mexicana promastigotes LmGLUT1 that are glucose transport deficient and complemented with the human glucose transporter GLUT1. Activity is measured by DNA content using SYBR green in vitro
- Type: functional
READOUT TYPE: inhibition (%)

| COMPOUND | ASSAYED SYSTEM | RECORDED RESULT |
| --- | --- | --- |
| CC(C)CN(Cc1c(O)ccc2[nH]c(-c3ccc(F)cc3F)nc12)CC(C)C | Solute carrier family 2, facilitated glucose transporter member 1 (Homo sapiens) | 11.1 |
| Oc1ccc(CNCC2CCN(CC3CCCCC3)CC2)cc1 | Solute carrier family 2, facilitated glucose transporter member 1 (Homo sapiens) | 5.22 |
| Cc1nc(C(C)Nc2nncc(-c3ccc(Cl)cc3)n2)cs1 (stereo not given) | Solute carrier family 2, facilitated glucose transporter member 1 (Homo sapiens) | 1.13 |
| CC(=O)Nc1cccc(/C=C/C(=O)N2CCC(N3CCCCC3)CC2)c1 | Solute carrier family 2, facilitated glucose transporter member 1 (Homo sapiens) | 2.23 |
| O=C(Nc1ccc(-c2ccccc2)cc1)Nc1cccc(Cn2ncc(N3CCNCC3)c(Cl)c2=O)c1 | Solute carrier family 2, facilitated glucose transporter member 1 (Homo sapiens) | -0.79 |
| O=S(=O)(Nc1cccc(CCN2CCCCC2CCN2CCCC2)c1)c1ccc2ccccc2c1 (stereo not given) | Solute carrier family 2, facilitated glucose transporter member 1 (Homo sapiens) | 0.63 |
| Cc1cccc2nc(-c3ccc(-c4cccc(CNCCN5CCNCC5)c4)cc3)[nH]c12 | Solute carrier family 2, facilitated glucose transporter member 1 (Homo sapiens) | 9.94 |
| Cc1n[nH]c2ccc(-c3ccc4nccc(N5CCC(N)CC5)c4c3)cc12 | Solute carrier family 2, facilitated glucose transporter member 1 (Homo sapiens) | -2.13 |
| COc1ccccc1NC(=O)CSc1nc2cccnc2n1-c1ccccc1OC | Solute carrier family 2, facilitated glucose transporter member 1 (Homo sapiens) | 0.89 |
| CCCN(CCC)CCCN(CCCN(CCC)CCC)c1cc(C)nc(Nc2ccc3cc(Br)ccc3c2)n1 | Solute carrier family 2, facilitated glucose transporter member 1 (Homo sapiens) | 50.9 |

* * *

- ASSAYED SYSTEM: Hexose transporter 1 (Plasmodium falciparum) (UniProt O97467)
- TEST: ST_JUDE_LEISH: Cytotoxicity at 2uM final concentration against transgenic Leishmania Mexicana promastigotes LmPfHT that are glucose transport deficient and complemented with the Plasmodium falciparum hexose transporter. Activity is measured by DNA content using SYBR green in vitro
- Type: functional
In this section we review reported inhibition values for a set of molecules.
READOUT TYPE: inhibition (%)

| MOLECULE | READOUT TYPE | VALUE UNITS | RECORDED RESULT |
| --- | --- | --- | --- |
| CCOC(=O)c1c[nH]c2c(sc3cc(OC)ccc32)c1=O | inhibition | % | -0.51 |
| Cc1ccc(-c2cncc(-c3cc(NC4CCN(Cc5ccccc5)CC4)nc(-c4ccccc4)n3)c2)cc1 | inhibition | % | 2.36 |
| Cc1[nH]c(C)c(-c2ccc(-c3ccccc3C(F)(F)F)nc2)c(=O)c1Br | inhibition | % | 3.67 |
| CC(C)N1CCC(N(Cc2ccc(-c3ccc(Cl)cc3)cc2)C(=O)Cn2c(CCc3cccc(F)c3F)nc(=O)c3ccccc32)CC1 | inhibition | % | 5.38 |
| CC1(C)N=C(N)N=C(N)C1c1ccc(Cl)cc1 (stereo not given) | inhibition | % | 5.72 |

* * *

- ASSAYED SYSTEM: Solute carrier family 2, facilitated glucose transporter member 1 (Homo sapiens) (UniProt P11166)
- Sequence (P11166 whole entry): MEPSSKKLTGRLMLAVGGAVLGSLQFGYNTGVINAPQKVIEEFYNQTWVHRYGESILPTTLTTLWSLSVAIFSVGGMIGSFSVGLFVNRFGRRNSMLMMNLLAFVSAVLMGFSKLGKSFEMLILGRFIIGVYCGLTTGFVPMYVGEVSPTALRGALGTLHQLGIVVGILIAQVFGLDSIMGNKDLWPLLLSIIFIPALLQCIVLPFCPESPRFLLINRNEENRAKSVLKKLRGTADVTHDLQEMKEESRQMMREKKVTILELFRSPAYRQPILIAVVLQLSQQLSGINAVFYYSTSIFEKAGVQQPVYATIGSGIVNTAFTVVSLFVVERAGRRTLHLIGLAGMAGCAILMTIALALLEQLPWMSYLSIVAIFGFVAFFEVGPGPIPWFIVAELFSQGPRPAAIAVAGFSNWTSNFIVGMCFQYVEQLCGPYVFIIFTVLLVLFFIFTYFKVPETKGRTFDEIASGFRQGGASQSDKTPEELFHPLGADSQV
- TEST: ST_JUDE_LEISH: Cytotoxicity at 2uM final concentration against transgenic Leishmania Mexicana promastigotes LmGLUT1 that are glucose transport deficient and complemented with the human glucose transporter GLUT1. Activity is measured by DNA content using SYBR green in vitro
- Type: functional
In this section we review reported inhibition values for a set of compounds.

| COMPOUND | VALUE UNITS | inhibition |
| --- | --- | --- |
| COc1ccc2nccc([C@@H](O)CNCCCN(C)CCOc3cc(F)cc(F)c3)c2c1 | % | 6.85 |
| c1ccc(-c2ccc3c(Nc4ccc5[nH]ccc5c4)ccnc3c2)nc1 | % | -1.13 |
| Nc1c2ccccc2nc2cc(Cl)ccc12 | % | 3.29 |
| COc1ccc2nccc([C@@H](O)CN3CCC(NCCOc4ccc(F)cc4[N+](=O)[O-])CC3)c2c1 | % | -1.59 |
| CC(O)C1CCCCN1C(=O)c1cccc(-c2ccc(-c3nc4cc(F)ccc4[nH]3)cc2)c1 (centres undefined) | % | 2.72 |
| Nc1ccc(-c2nc3cc(Oc4ccc5[nH]c(-c6ccc(N)cc6)nc5c4)ccc3[nH]2)cc1 | % | -3.07 |
| CCCCc1ccc(CCNCCCCCCNCCc2ccc(O)c(O)c2)cc1 | % | 0.01 |
| O=[N+]([O-])c1ccc(N2CCCN(C(=S)Nc3ccc(F)cc3Br)CC2)nc1 | % | 1.6 |
| Cc1ccc(Nc2nccc(N(C)c3ccc4c(c3)nc(NC(=O)Cc3ccc(Cl)c(Cl)c3)n4C)n2)cc1S(N)(=O)=O | % | 6.81 |
| COc1ccc2c(NN=Cc3ccc(Cl)cc3)ccnc2c1 | % | 3.12 |
| CN(C)CCN(C)Cc1ccc(-c2cccc(NC(=O)c3cccc(C#N)c3)c2)cc1 | % | 15.4 |
| CCCc1cc(Cc2cnc(N)nc2N)cc(CCC)c1OC | % | 4.11 |
| CN1CCN(CCCN(Cc2cccc(-c3ccc(CNC4CCCC4)cc3)c2)C(=O)/C=C/c2ccccc2)CC1 | % | 6.1 |
| CN1CCCN(Cc2cccc(-c3ccc(NC(=O)c4cccc(C#N)c4)cc3)c2)CC1 | % | 28.9 |
| O=C(Nc1ccc(Br)c(Cl)c1)c1cc([N+](=O)[O-])cc2cn[nH]c12 | % | -0.11 |
| Cc1ccc(Nc2ccnc3cc(-c4nccs4)ccc23)cc1C(O)c1ccccc1 (centres undefined) | % | 3.59 |
| Cc1ccc(N2CCN(C(=O)c3cccc(-c4cncc5nc(-c6ccco6)n(C)c45)c3)CC2)nc1 | % | 6.13 |
| Cc1cc(N[C@@H](CC(C)C)C(=O)NCCc2ccccc2)nc(NCCc2cccs2)n1 | % | 5 |
| COc1cc(NC(=O)c2ccc(-c3ccc(C(C)=O)cc3)s2)ccc1OCCN1CCCC1 | % | 0.3 |
| O=C(Cn1c(CCc2cccc(F)c2F)nc(=O)c2ccccc21)N(CCCN1CCCC1)Cc1ccc(-c2ccc(C(F)(F)F)cc2)cc1 | % | 8.01 |
| CC[C@H](C)CNC(=O)c1cncc(-c2ccc(CNC3Cc4ccccc4C3)cc2)c1 | % | 6.08 |
| Brc1ccc(Nc2ccnc3cc(-c4nccs4)ccc23)cc1Oc1ccnc2cc(-c3nccs3)ccc12 | % | 1.77 |
| CN(Cc1c(Cl)cnn1C)S(=O)(=O)c1ccc2ccccc2c1 | % | 5.51 |
| Cc1cccc(NC(=O)NC2CCN(CCCCCNC(=O)/C=C/c3ccc(Cl)c(Cl)c3)CC2)c1 | % | 4.31 |
| COc1cc(CCNc2nc(NCc3ccccc3-c3ccccc3)nc(N3CCC(N)CC3)n2)ccc1O | % | 4.17 |
| O=C(CCc1nc2c(cnn2-c2ccccc2)c(=O)[nH]1)NC1CCSc2ccccc21 (centres undefined) | % | 0.18 |
| N#Cc1ccc(CN2CCC(Oc3ccc(NC(=O)c4ccccc4)cc3Cl)CC2)cc1 | % | 0.83 |
| O=C(NC1CCC1)C1CCN(C(c2ccc(Cl)cc2)c2ccc(Cl)cc2)CC1 | % | -0.62 |
| O=C(Nc1cccc(CN2CCCN(Cc3ccc4c(c3)OCO4)CC2)c1)c1cc2ccccc2s1 | % | -0.41 |
| O=C(C1CCCC1)N1CCOC(CCN2CCC(c3ccccc3)CC2)(c2ccc(Cl)c(Cl)c2)C1 (centres undefined) | % | 11.9 |
| COc1ccc(Nc2c3ccc(Cl)cc3nc3ccc(OC)cc23)cc1 | % | 2.45 |
| Cc1nc(N)nc(N)c1OCCCCCCOc1ccccc1 | % | 2.38 |
| CC(C)CNCc1ccc(-c2cccc(CN(CCN(C)C)C(=O)CCC3CCCC3)c2)cc1 | % | 30 |
| CCC(C)NC(=O)Nc1ccc(-c2cccc(-c3nc4ccccc4[nH]3)c2)cc1 (centres undefined) | % | -0.78 |
| O=C(Nc1ccc(Cn2nc(Cl)c(N3CCNCC3)cc2=O)cc1)Nc1ccc(-c2ccccc2)cc1 | % | 14 |
| COc1ccc2ccccc2c1C=NN=c1cc(C)[nH]c2c(C)cccc12 | % | 1.52 |
| COc1ccc(-c2ccccc2CNC2Cc3ccccc3C2)cc1S(=O)(=O)NCCN1CCCC1 | % | 2.56 |
| COc1cc2nc(N3CCN(C(=O)c4ccco4)CC3)nc(NCc3ccccc3)c2cc1OC | % | 14.9 |
| CC(C)(C)c1ccc(CNC(=O)c2ccc(CNC3CCC(N)CC3)s2)cc1 (centres undefined) | % | -0.19 |
